target: FGF-1 (Homo sapiens); assay: FGF-1 induced sprouting of HUVEC, spheroid-based cellular angiogenesis assay; details: FGF-1 25 ng/mL preincubated with compound, 24 h
Sequence (P05230 whole entry): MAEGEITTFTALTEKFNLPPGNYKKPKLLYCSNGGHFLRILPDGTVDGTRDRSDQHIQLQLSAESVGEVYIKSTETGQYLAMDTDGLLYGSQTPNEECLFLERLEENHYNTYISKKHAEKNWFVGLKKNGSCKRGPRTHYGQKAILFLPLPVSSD
pIC50: −log10 of the molar value.
Reported Endpoint: pIC50

Some compounds with known pIC50 results, for comparison:
O=C(O)c1ccc(NC(=O)c2cc(O)cc(C(=O)O)c2O)cc1C(=O)O [IIa-014a]	4.40
COC(=O)c1cc(OC(C)=O)cc(CS(=O)(=O)Cc2cc(OC(C)=O)cc(C(=O)OC)c2OC(C)=O)c1OC(C)=O [IVc-059a-E2-A4]	4.27
O=C(O)c1cc(NC(=O)c2cc(O)c(C(=O)O)cc2O)cc(C(=O)O)c1 [Ia-015a]	4.70
O=C(O)c1ccccc1NC(=O)c1cc(O)cc(C(=O)O)c1O [IIa-001a]	5.07

(P) O=C(O)Cc1cc(O)c(C(=O)Nc2ccccc2-c2nnn[nH]2)cc1O
(Q) O=C(O)c1ccc(NC(=O)c2cc(O)c(C(=O)O)cc2O)cc1 [Ia-003a]
(R) COC(=O)c1cc(O)ccc1NC(=O)c1cc(O)c(C(=O)Nc2ccc(O)cc2C(=O)OC)cc1O [Ic-009a-E2]
(S) CCOC(=O)c1cc(O)c(-c2nc3c(C(=O)OC)cccc3[nH]2)cc1O [Id-030a-E2]
**Q:** // smallest pIC50 at index 0, largest at the end Form field (ranking): labels in requested order.
**A:** S, P, R, Q
(S: 3.94, P: 4.29, R: 4.64, Q: 4.92)

====

tested on: IL-18; experiment: Cytokine release after LPS induction on human whole blood: IL-18; assay type: cell-based; settings: human whole blood, inhibition of LPS induced inflammation; read-out: IC50 IL-18
Reported Endpoint: IC50 (µM)

O=C(O)c1cc(O)c(C(=O)Nc2ccc(-c3nnn[nH]3)cc2)cc1O [Ia-003a-Tz]	100

(a) O=C(O)Cc1cc(O)c(C(=O)Nc2ccccc2-c2nnn[nH]2)cc1O
(b) O=C(O)c1cc(O)c(C(=O)Nc2ccccc2S(=O)(=O)O)cc1O [Ia-001c]
**Q:** Pick the one with the larger IC50: a vs b Give the label under which the chosen entry appears.
**A:** b

(I) O=C(O)c1cc(O)c(CN(Cc2cc(O)c(C(=O)O)cc2O)Cc2cc(O)c(C(=O)O)cc2O)cc1O [IIIc-061a]
(II) O=C(O)c1ccccc1CNC(=O)c1cc(O)cc(C(=O)O)c1O [IIa-053a]
**Q:** Quick one: lower IC50, I or II ? Respond with the label that goes with your answer.
**A:** I
(I: 32.4 µM, II: 100 µM)

====

// reported Mean terminal pancreas weight per item
tested on: acute pancreatitis murine model; assay: Caerulein-induced acute pancreatitis murine model; format: in vivo, Balb/c mice; settings: 1st experiment; caerulein induced; 15 mg/kg IV, Ib-010a and IVc-059a 150 mg/kg PO, Pirfenidone 40 mg/kg IV
Respond numerically; units are g and should not be typed.

Solved cases (3 shown):
O=C(O)c1cc(NC(=O)c2cc(O)c(C(=O)O)cc2O)cc(NC(=O)c2cc(O)c(C(=O)O)cc2O)c1 [Ib-010a]	0.091
O=C(O)c1cc(O)c(C(=O)Nc2ccccc2-c2nnn[nH]2)cc1O [Ia-001a-Tz]	0.084
O=C(O)c1cc(O)c(C(=O)Nc2ccccc2C(=O)O)cc1O [Ia-001a]	0.083

Next compound, Mean terminal pancreas weight to be filled in.
**Q:** Query: Mean terminal pancreas weight; subject: O=C(O)c1cc(NC(=O)c2cc(O)c(C(=O)Nc3ccccc3-c3nnn[nH]3)cc2O)ccc1O [Ic-001a-Tz/004a]
**A:** 0.104
